Just for reference, ChEMBL document CHEMBL4706681 is where these values come from.

biological target: Amine oxidase [flavin-containing] B (Homo sapiens); experiment: Reversible inhibition of human MAO-B assessed as residual enzyme activity at 4 fold IC50 incubated for 15 mins and measured 24 hrs post dialysis relative to control; conditions: 24.25 h, time 1455 min
Sequence (P27338 whole entry): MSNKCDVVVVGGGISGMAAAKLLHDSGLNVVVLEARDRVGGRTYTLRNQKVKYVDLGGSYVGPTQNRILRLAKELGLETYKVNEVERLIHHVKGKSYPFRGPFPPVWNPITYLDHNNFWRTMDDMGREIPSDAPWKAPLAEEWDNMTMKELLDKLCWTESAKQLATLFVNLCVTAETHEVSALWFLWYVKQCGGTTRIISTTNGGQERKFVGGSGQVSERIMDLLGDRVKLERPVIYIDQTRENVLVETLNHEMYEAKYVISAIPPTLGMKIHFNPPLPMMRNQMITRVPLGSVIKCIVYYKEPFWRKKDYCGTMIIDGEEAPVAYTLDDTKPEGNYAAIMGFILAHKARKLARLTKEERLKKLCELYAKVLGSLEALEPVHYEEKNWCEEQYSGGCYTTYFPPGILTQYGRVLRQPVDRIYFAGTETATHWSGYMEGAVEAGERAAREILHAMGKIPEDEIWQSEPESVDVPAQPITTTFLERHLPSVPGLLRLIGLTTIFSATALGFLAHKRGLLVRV
MEASUREMENT_LABEL: Activity (%)
Dear colleague, please return just the value in %, with no unit written.

[
  {
    "MOLECULE": "COc1ccccc1C(/C=C/c1ccccc1Cl)=N/NC(=O)Cn1c(=O)oc2ccc(Cl)cc21",
    "Activity [%]": 93.41
  },
  {
    "MOLECULE": "O=C(NCCN1CCOCC1)c1ccc(Cl)cc1 [MOCLOBEMIDE]",
    "Activity [%]": 89.55
  },
  {
    "MOLECULE": "COc1ccc(C2=NN(C(=O)Cn3c(=O)oc4ccc(C)cc43)C(c3cccc(OC)c3OC)C2)cc1 (centres undefined)",
    "Activity [%]": 94.16
  },
  {
    "MOLECULE": "COc1ccc(C(/C=C/c2cccc(OC)c2OC)=N/NC(=O)Cn2c(=O)oc3ccc(Cl)cc32)cc1",
    "Activity [%]": 95.21
  },
  {
    "MOLECULE": "COc1ccccc1/C=C/C(=N\\NC(=O)Cn1c(=O)oc2ccc(Cl)cc21)c1ccccc1",
    "Activity [%]": 97
  }
]

The molecule listed as COc1ccc(C2=NN(C(=O)Cn3c(=O)oc4ccccc43)C(c3ccccc3Cl)C2)cc1 (centres undefined) shows Activity equal to 91.5

Short answer for NCCNC(=O)c1ccc(Cl)cn1 [LAZABEMIDE] : Activity was 99

The molecule listed as COc1cccc(C2CC(c3ccccc3)=NN2C(=O)Cn2c(=O)oc3ccccc32)c1 (centres undefined) has a reported Activity of 92.25

Sure, the documented Activity for COc1ccc(C2CC(c3ccccc3)=NN2C(=O)Cn2c(=O)oc3ccccc32)cc1OC (centres undefined) is 94.8

###

biological target: Amine oxidase [flavin-containing] A (Homo sapiens); assay: Inhibition of recombinant human MAO-A expressed in baculovirus infected BTI insect cells using p-tyramine as substrate incubated for 30 mins by Amplex red reagent based fluorescence analysis
MEASUREMENT_LABEL: Ki (nM)
Give the value in nM but do not write nM after it.

Worked examples, 3 compounds total:
[
  {
    "COMPOUND": "COc1ccc(C2=NN(C(=O)Cn3c(=O)oc4ccc(C)cc43)C(c3ccccc3)C2)cc1 (centres undefined)",
    "TEST_SYSTEM": "Amine oxidase [flavin-containing] A (Homo sapiens)",
    "MEASUREMENT_LABEL": "Ki",
    "UNIT_NAME": "nM",
    "ASSAY_VALUE": 800
  },
  {
    "COMPOUND": "COc1ccccc1C(/C=C/c1ccccc1Cl)=N/NC(=O)Cn1c(=O)oc2ccccc21",
    "TEST_SYSTEM": "Amine oxidase [flavin-containing] A (Homo sapiens)",
    "MEASUREMENT_LABEL": "Ki",
    "UNIT_NAME": "nM",
    "ASSAY_VALUE": 4
  },
  {
    "COMPOUND": "COc1cccc(C2CC(c3ccccc3)=NN2C(=O)Cn2c(=O)oc3ccc(C)cc32)c1 (centres undefined)",
    "TEST_SYSTEM": "Amine oxidase [flavin-containing] A (Homo sapiens)",
    "MEASUREMENT_LABEL": "Ki",
    "UNIT_NAME": "nM",
    "ASSAY_VALUE": 5
  }
]

Turning to the following compound.
Sample Cc1ccc(C2=NN(C(=O)Cn3c(=O)oc4ccccc43)C(c3ccccc3)C2)cc1 (centres undefined) ; Ki observed: 19

###

experiment: Selectivity index, ratio of Ki for inhibition of recombinant human MAO-A to Ki for inhibition of recombinant human MAO-B using p-tyramine as substrate
MEASUREMENT_LABEL: Ratio Ki

Some solved cases for reference:
[
  {
    "COMPOUND": "COc1ccc(C2CC(c3ccccc3)=NN2C(=O)Cn2c(=O)oc3ccccc32)cc1OC (stereo not drawn)",
    "MEASUREMENT_LABEL": "Ratio Ki",
    "ASSAY_VALUE": "4.55 10^-5No_unit"
  },
  {
    "COMPOUND": "COc1ccccc1C(/C=C/c1ccccc1Cl)=N/NC(=O)Cn1c(=O)oc2ccc(C)cc21",
    "MEASUREMENT_LABEL": "Ratio Ki",
    "ASSAY_VALUE": "6.65 10^-4No_unit"
  }
]

// moving on: another record for Ratio Ki
Kindly note the recorded Ratio Ki for `COc1ccccc1C(/C=C/c1ccccc1)=N/NC(=O)Cn1c(=O)oc2ccc(C)cc21` , which is 2.22 10^-4No_unit

###

target: Amine oxidase [flavin-containing] B (Homo sapiens); assay: Inhibition of recombinant human MAO-B expressed in baculovirus infected BTI insect cells using p-tyramine as substrate incubated for 30 mins by Amplex red reagent based fluorescence analysis
Label 1 (yes) when Ki < 20 µM; otherwise 0 (no).

Answered cases to consult:
[
  {
    "COMPOUND": "COc1cccc(C2CC(c3ccc(C)cc3)=NN2C(=O)Cn2c(=O)oc3ccccc32)c1OC (stereo unspecified)",
    "CLASS_ASSIGNMENT": "0 (no)"
  },
  {
    "COMPOUND": "COc1ccccc1C1=NN(C(=O)Cn2c(=O)oc3ccc(C)cc32)C(c2ccccc2Cl)C1 (stereo unspecified)",
    "CLASS_ASSIGNMENT": "1 (yes)"
  },
  {
    "COMPOUND": "COc1ccc(C2=NN(C(=O)Cn3c(=O)oc4ccc(C)cc43)C(c3cccc(OC)c3OC)C2)cc1 (stereo unspecified)",
    "CLASS_ASSIGNMENT": "0 (no)"
  }
]

Task item: Please check: Ki for COc1cccc(C2CC(c3ccccc3)=NN2C(=O)Cn2c(=O)oc3ccccc32)c1 (stereo unspecified) , strictly under 20 µM or not?
Reply: 1 (yes)

Task item: Bench note: check whether COc1ccccc1C1=NN(C(=O)Cn2c(=O)oc3ccccc32)C(c2ccccc2Cl)C1 (stereo unspecified) shows Ki below 20 µM
Reply: 1 (yes)

Task item: Field: below-cutoff. Rule: recorded Ki strictly less than 20 µM. Subject: COc1ccccc1C1=NN(C(=O)Cn2c(=O)oc3ccc(Cl)cc32)C(c2ccccc2Cl)C1 (stereo unspecified)
Reply: 1 (yes)

###

biological target: Amine oxidase [flavin-containing] A (Homo sapiens, UniProt P21397); experiment: Reversible inhibition of human MAO-A assessed as residual enzyme activity at 4 fold IC50 incubated for 15 mins and measured 24 hrs post dialysis by dialysis method relative to control; details: 24.25 h, time 1455 min
Sequence (P21397 whole entry): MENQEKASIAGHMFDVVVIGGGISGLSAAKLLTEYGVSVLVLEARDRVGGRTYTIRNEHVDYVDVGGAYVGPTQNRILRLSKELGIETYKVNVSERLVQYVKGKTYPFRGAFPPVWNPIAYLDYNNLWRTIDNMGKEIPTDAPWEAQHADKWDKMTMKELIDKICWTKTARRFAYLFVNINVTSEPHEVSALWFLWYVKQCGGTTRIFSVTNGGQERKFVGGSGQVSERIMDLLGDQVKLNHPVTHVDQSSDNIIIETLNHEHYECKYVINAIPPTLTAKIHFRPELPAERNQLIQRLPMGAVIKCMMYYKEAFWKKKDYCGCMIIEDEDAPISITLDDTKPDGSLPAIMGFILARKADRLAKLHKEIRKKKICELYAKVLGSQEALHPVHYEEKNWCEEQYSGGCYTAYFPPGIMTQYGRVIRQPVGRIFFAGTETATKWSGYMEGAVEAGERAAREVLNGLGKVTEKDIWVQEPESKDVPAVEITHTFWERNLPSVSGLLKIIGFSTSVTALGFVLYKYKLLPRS
MEASUREMENT_LABEL: Activity

[
  {
    "COMPOUND": "COc1ccccc1C(/C=C/c1ccccc1Cl)=N/NC(=O)Cn1c(=O)oc2ccc(Cl)cc21",
    "TEST_SYSTEM": "Amine oxidase [flavin-containing] A (Homo sapiens, UniProt P21397)",
    "Activity": "93.26%"
  },
  {
    "COMPOUND": "O=C(NCCN1CCOCC1)c1ccc(Cl)cc1 [MOCLOBEMIDE]",
    "TEST_SYSTEM": "Amine oxidase [flavin-containing] A (Homo sapiens, UniProt P21397)",
    "Activity": "93.77%"
  },
  {
    "COMPOUND": "COc1ccc(C2CC(c3ccccc3)=NN2C(=O)Cn2c(=O)oc3ccccc32)cc1OC (configuration not stated)",
    "TEST_SYSTEM": "Amine oxidase [flavin-containing] A (Homo sapiens, UniProt P21397)",
    "Activity": "94%"
  },
  {
    "COMPOUND": "NCCNC(=O)c1ccc(Cl)cn1 [LAZABEMIDE]",
    "TEST_SYSTEM": "Amine oxidase [flavin-containing] A (Homo sapiens, UniProt P21397)",
    "Activity": "97%"
  },
  {
    "COMPOUND": "COc1ccccc1/C=C/C(=N\\NC(=O)Cn1c(=O)oc2ccc(Cl)cc21)c1ccccc1",
    "TEST_SYSTEM": "Amine oxidase [flavin-containing] A (Homo sapiens, UniProt P21397)",
    "Activity": "92.24%"
  }
]

Lookup result for COc1cccc(C2CC(c3ccccc3)=NN2C(=O)Cn2c(=O)oc3ccccc32)c1 (configuration not stated) ; measured Activity: 91.74%

Query COc1ccc(C2=NN(C(=O)Cn3c(=O)oc4ccc(C)cc43)C(c3cccc(OC)c3OC)C2)cc1 (configuration not stated) yields Activity of 92.55%

###

target: Amine oxidase [flavin-containing] A (Homo sapiens); experiment: Inhibition of recombinant human MAO-A expressed in baculovirus infected BTI insect cells using p-tyramine as substrate incubated for 30 mins by Amplex red reagent based fluorescence analysis
pKi: −log10 of the molar value.
Mark True for reported pKi of 8 or greater; mark False for anything smaller.

[
  {
    "COMPOUND": "Cc1ccc(C2CC(c3ccccc3)=NN2C(=O)Cn2c(=O)oc3ccccc32)cc1 (stereo not given)",
    "CLASS_ASSIGNMENT": "True"
  }
]

Task item: Answer whether pKi of COc1ccccc1C1=NN(C(=O)Cn2c(=O)oc3ccc(C)cc32)C(c2ccccc2Cl)C1 (stereo not given) is greater than or equal to 8.
Reply: False
